Target: E. coli DNA gyrase (Escherichia coli, UniProt P0AES4+P0AES6)
Sequence (P0AES4 whole entry, one chain of several): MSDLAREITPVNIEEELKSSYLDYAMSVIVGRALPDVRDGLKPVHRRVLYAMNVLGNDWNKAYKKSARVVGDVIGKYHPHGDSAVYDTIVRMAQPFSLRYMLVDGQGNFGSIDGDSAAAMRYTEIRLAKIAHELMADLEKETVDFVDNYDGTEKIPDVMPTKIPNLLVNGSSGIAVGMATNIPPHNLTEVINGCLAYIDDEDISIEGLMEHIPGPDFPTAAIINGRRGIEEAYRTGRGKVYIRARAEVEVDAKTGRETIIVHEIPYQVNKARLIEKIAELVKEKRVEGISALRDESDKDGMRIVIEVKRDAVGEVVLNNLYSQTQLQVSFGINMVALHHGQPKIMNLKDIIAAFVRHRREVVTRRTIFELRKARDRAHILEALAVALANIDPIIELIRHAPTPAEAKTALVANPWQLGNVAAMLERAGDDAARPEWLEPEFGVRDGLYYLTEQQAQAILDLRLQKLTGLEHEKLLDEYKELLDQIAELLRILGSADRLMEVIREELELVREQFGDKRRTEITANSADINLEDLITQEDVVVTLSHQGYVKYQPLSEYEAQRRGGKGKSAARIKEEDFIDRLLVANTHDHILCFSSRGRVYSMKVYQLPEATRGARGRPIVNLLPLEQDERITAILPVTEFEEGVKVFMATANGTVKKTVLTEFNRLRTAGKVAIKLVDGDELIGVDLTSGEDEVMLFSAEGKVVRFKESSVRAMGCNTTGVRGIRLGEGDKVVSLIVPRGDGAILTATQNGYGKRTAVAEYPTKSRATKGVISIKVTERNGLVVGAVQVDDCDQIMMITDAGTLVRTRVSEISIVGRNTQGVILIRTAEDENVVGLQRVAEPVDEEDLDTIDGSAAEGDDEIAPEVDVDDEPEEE
Assay: DNA gyrase gel shift assay
Conditions: IC50 against E. coli DNA gyrase, WT Gyrase; Trial 3

# molecule, studyTarget, IC50, nM
records = [
    ("N#Cc1cccc(S(=O)(=O)N[C@@H]2CCN(Cc3ccc(-c4ccccc4)cc3)C2)c1 [Gyramide C2, gyramide C2]", "E. coli DNA gyrase (Escherichia coli, UniProt P0AES4+P0AES6)", 163),
]

----------
Tested on: Klebsiella pneumoniae subsp. pneumoniae
Test: MIC, 20-strain panel
Assay type: cell-based
Conditions: Klebsiella pneumoniae subsp. pneumoniae
propertyMeasured: MIC

# compound, testResult
rows = [
    ("N#Cc1cc(S(=O)(=O)N[C@@H]2CCN(Cc3ccc(OC4CC4)cc3)C2)ccc1F [Compound 166]", "> 8 mg/L"),
    ("Cc1ccc(S(=O)(=O)N[C@@H]2CCN(Cc3ccc(-c4ccccc4)cc3)C2)cc1C#N [Compound 131]", "> 8 mg/L"),
    ("CC(C)Oc1ccc(CN2CC[C@@H](NS(=O)(=O)c3ccc(Cl)cn3)C2)cc1 [Compound 149]", "> 8 mg/L"),
    ("CN1C(=O)Cc2cc(S(=O)(=O)N[C@@H]3CCN(Cc4ccc(-c5ccccc5)cc4)C3)ccc21 [Compound 180]", "> 8 mg/L"),
]

----------
Test system: Edwardsiella tarda
Assay: MIC, microdilution in 96-well plates
Type: cell-based
Listing: MIC of selected molecules
propertyMeasured: MIC

# compoundSmiles, propertyMeasured, testResult
measured = [
    ("COc1cc(CN2CC[C@@H](NS(=O)(=O)c3cccc(C#N)c3)C2)ccc1OC(C)C", "MIC", "> 8 µg/mL"),
    ("N#Cc1cccc(S(=O)(=O)N[C@@H]2CCN(Cc3ccc(-n4cccn4)cc3)C2)c1", "MIC", "> 8 µg/mL"),
    ("O=S(=O)(N[C@@H]1CCN(Cc2ccc(OC3CC3)cc2)C1)c1ccc(Cl)cn1", "MIC", "> 8 µg/mL"),
]

----------
Tested on: Salmonella enterica subsp. enterica typhimurium
Assay: MIC, 20-strain panel
Format: cell-based
Settings: F: Salmonella enterica subsp. enterica Typhimurium

# compoundSmiles, MIC
rows = [
    ("O=S(=O)(N[C@@H]1CCN(Cc2ccc3c(c2)OCCO3)C1)c1cccc(C(F)(F)F)c1", "> 8 µg/mL"),
    ("O=S(=O)(N[C@@H]1CCN(Cc2ccc(OCC(F)F)cc2)C1)c1cccc(C(F)(F)F)c1", "4 µg/mL"),
    ("O=S(=O)(N[C@@H]1CCN(Cc2ccc(OC(F)(F)F)cc2)C1)c1cccc(C(F)(F)F)c1", "> 8 µg/mL"),
    ("O=S(=O)(N[C@@H]1CCN(Cc2ccc(-n3cccn3)cc2)C1)c1cccc(OC(F)(F)F)c1", "> 8 µg/mL"),
    ("O=S(=O)(N[C@@H]1CCN(Cc2ccc(-c3ccccc3)cc2)C1)c1cc(C(F)(F)F)cc(C(F)(F)F)c1", "> 8 µg/mL"),
    ("O=S(=O)(N[C@@H]1CCN(Cc2ccc(OC3CC3)cc2)C1)c1cccc2cccnc12", "~8 µg/mL"),
    ("O=S(=O)(N[C@@H]1CCN(Cc2ccc(OC3CCC3)cc2)C1)c1cccc(C(F)(F)F)c1", "8 µg/mL"),
]
